Assay: probe aNog binding to arrayed compounds – biochemical, biotinylated probe, 635/667 nm fluorescence, primary screen (AID 1115);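 also: probe is biotinylated aNog protein used at 0.15 µg/mL for 1 h at 4 C; z-score combines 667 nm fluorescence of each spot with its signal to noise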
Conditions: small-molecule microarray, higher = more signal
Listed here: items and their measured composite z-score.
READOUT_TYPE: composite z-score

{"COMPOUND": "[N-]=[N+]=NCc1ccccc1C[C@]1(C(N)=O)N=C(c2ccc(OCCCO)cc2)O[C@H]1c1ccccc1N=[N+]=[N-]", "READOUT_TYPE": "composite z-score", "MEASURED": 1.08}
{"COMPOUND": "O=C1O[C@@H](c2ccccc2)[C@@H](c2ccccc2)N2[C@@H](c3ccc(O)cc3)[C@]3(C(=O)Nc4ccccc43)[C@@H](C(=O)NC[C@H](O)c3ccccc3)[C@H]12", "READOUT_TYPE": "composite z-score", "MEASURED": -0.0899}
{"COMPOUND": "CCOC(=O)C[C@H]1[C@H](OC(=O)c2cc3ccccc3oc2=O)[C@@H](NC(=O)c2ccc3ccccc3c2)c2cc(OCCCO)ccc2N1C(=O)c1ccccc1", "READOUT_TYPE": "composite z-score", "MEASURED": -0.0863}
{"COMPOUND": "O=C1C2C=CC(C(O)c3ccc(Br)cc3)N(n3cnnc3)C2C(=O)N1Cc1ccccc1 (configuration not stated)", "READOUT_TYPE": "composite z-score", "MEASURED": 0.205}
{"COMPOUND": "COC(=O)c1c(CC[C@@H](CO)NC(=O)Nc2ncn[nH]2)oc(C(=O)Cc2ccccc2)c1C(=O)OC", "READOUT_TYPE": "composite z-score", "MEASURED": -0.0144}
{"COMPOUND": "COCCOC(=O)N1C(=O)[C@@]2(c3ccccc31)[C@H](C(=O)N1CCCCCCC1)[C@H]1C(=O)O[C@H](c3ccccc3)[C@H](c3ccccc3)N1[C@@H]2c1ccccc1OCCO", "READOUT_TYPE": "composite z-score", "MEASURED": 2.48}
{"COMPOUND": "COC(=O)[C@@]1(Cc2ccc(OC)cc2)[C@H]2c3cc(C(=O)N4CCCC4)n(CCc4ccccn4)c3C[C@H]2CN1C(=O)c1ccccc1", "READOUT_TYPE": "composite z-score", "MEASURED": 1.22}
